# SYSTEM NAME: full-length ALPK1 (Homo sapiens, UniProt Q96QP1)
# Construct: recombinant full-length ALPK1 kinase purified from Sf9 cells; 3xFlag (C)
# MEASUREMENT NOTES: Surface plasmon resonance (SPR)
# CONDITION LABEL: with 500 nM ADP-L-heptose
Please use 1 (yes) for Kd under 100 µM and 0 (no) for everything else, ties included.

Below are worked cases with known answers.
| CHEMICAL STRUCTURE | SYSTEM NAME | LABEL VALUE |
| --- | --- | --- |
| O=C1NC(=O)/C(=C/c2ccc(-c3ccc(F)cc3O)o2)S1 | full-length ALPK1 (Homo sapiens, UniProt Q96QP1) | 1 (yes) |
| O=C(O)c1cccnc1Nc1cccc(C(F)(F)F)c1 | full-length ALPK1 (Homo sapiens, UniProt Q96QP1) | 1 (yes) |
| CC1=NN(c2ccc(C)c(C)c2)C(=O)/C1=N\Nc1cccc(-c2cccc(C(=O)O)c2)c1O | full-length ALPK1 (Homo sapiens, UniProt Q96QP1) | 1 (yes) |
| O=C(O)c1cc(/N=N/c2ccc(S(=O)(=O)Nc3ccccn3)cc2)ccc1O | full-length ALPK1 (Homo sapiens, UniProt Q96QP1) | 0 (no) |

Proceed to the following item.
Does the reported Kd of the following compound sit strictly below 100 µM? Brc1c(Br)c(Br)c2n[nH]nc2c1Br
0 (no)

====

# MEASUREMENT NOTES: Pharmacokinetic analyses, oral once daily for 10 days
# CONDITION LABEL: male, C57BL/6J, mouse, plasma, po, 5 mg/kg
QUANTITY: Tmax (h)
# number only, unit h dropped from output

Per the records, this molecule ( C#C[C@@](C)(c1ccc(Cl)cc1)c1csc(NC(=O)c2c(F)cc(N3CCNCC3)cc2F)n1 (stereo in doubt) [DF-003] ) has Tmax equal to 2.67

====

# MEASUREMENT NOTES: Pharmacokinetic analyses, oral once daily for 10 days
# CONDITION LABEL: male, C57BL/6J, mouse, plasma, po, 3 mg/kg
QUANTITY: Tmax (h)
# number only, unit h dropped from output

Per the records, this molecule ( C#C[C@@](C)(c1ccc(Cl)cc1)c1csc(NC(=O)c2c(F)cc(N3CCNCC3)cc2F)n1 (stereo in doubt) [DF-003] ) has Tmax equal to 2

====

# SYSTEM NAME: ALPK1 (Homo sapiens, UniProt Q96QP1)
# Sequence (Q96QP1 whole entry): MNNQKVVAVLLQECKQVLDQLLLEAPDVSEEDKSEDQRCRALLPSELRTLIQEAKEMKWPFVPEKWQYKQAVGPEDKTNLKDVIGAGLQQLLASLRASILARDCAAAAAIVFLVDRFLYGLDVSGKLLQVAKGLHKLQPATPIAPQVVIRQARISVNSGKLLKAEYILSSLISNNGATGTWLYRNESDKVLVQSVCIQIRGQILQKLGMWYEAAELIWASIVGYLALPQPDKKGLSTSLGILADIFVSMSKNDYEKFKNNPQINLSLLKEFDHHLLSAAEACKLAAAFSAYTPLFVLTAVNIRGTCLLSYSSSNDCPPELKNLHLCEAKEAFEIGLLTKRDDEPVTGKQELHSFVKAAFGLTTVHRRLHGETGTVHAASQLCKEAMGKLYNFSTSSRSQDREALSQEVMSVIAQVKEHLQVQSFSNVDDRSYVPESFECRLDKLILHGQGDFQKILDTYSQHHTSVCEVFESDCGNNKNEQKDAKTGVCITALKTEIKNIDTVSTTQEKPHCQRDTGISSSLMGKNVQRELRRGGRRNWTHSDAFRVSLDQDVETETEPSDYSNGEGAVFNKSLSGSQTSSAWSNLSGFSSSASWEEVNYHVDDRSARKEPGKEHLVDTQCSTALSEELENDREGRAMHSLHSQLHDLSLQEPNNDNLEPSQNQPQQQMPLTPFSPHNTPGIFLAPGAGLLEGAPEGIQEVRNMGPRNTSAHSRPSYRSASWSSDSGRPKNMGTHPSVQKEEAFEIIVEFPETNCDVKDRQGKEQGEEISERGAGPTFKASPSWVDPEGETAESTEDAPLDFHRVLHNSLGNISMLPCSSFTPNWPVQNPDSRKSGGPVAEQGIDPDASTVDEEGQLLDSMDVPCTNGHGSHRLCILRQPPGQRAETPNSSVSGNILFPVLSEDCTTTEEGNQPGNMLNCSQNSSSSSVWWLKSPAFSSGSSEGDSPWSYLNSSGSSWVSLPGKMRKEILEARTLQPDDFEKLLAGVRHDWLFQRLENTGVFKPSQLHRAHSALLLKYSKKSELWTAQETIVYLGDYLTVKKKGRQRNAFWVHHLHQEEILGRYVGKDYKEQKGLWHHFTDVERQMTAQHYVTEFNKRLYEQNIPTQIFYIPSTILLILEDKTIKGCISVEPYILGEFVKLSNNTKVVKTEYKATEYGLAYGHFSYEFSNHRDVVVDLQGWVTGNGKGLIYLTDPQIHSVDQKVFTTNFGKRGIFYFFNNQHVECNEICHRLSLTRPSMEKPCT
# MEASUREMENT NOTES: TR-FRET (HTRF) kinase assay
# CONDITION LABEL: read-out: HTRF Assay (IC50); 6.25 µM ATP, 20 nM ADP-D-heptose
Please use Satisfied for IC50 under 200 nM and Not satisfied for everything else, ties included.

| MOLECULE | LABEL VALUE |
| --- | --- |
| COc1cccc2sc(NC(=O)c3c(F)cccc3F)nc12 [Compound 35] | Not satisfied |
| CC#CC(C)(c1ccc(Cl)cc1)c1csc(NC(=O)c2c(F)cc(N3CCNCC3)cc2F)n1 (centres unmarked) [Compound 69] | Satisfied |
| COCC(C)(c1ccc(Cl)cc1)c1csc(NC(=O)c2c(F)cc(N3CCNCC3)cc2F)n1 (centres unmarked) [Compound 74] | Satisfied |
| COc1cccc2sc(NC(=O)c3c(F)cc(N4CCNCC4)cc3F)nc12 [Compound 43] | Not satisfied |
| COc1cccc2sc(NC(=O)c3c(F)cc(N4CCC(N)C4)cc3F)nc12 (centres unmarked) [Compound 38] | Satisfied |
| CC(C)(c1ccc(Br)cc1)c1csc(NC(=O)NCc2ccc(N3CCNCC3)c(Cl)c2)n1 [Compound 24] | Not satisfied |
| COCC(C)(c1ccccc1)c1csc(NC(=O)c2c(F)cc(N3CCNCC3)cc2F)n1 (centres unmarked) [Compound 62] | Satisfied |
| C#CC(C)(c1ccc(OC)cc1)c1csc(NC(=O)c2c(F)cc(N3CCNCC3)cc2F)n1 (centres unmarked) [Compound 72] | Satisfied |

Proceed to the following item.
Does the reported IC50 of the following molecule sit strictly below 200 nM? C#CC(C)(c1ccc(Cl)cc1)c1csc(NC(=O)c2c(F)cc(N3CCNC(CO)C3)cc2F)n1 (centres unmarked) [Compound 55]
Not satisfied

====

# MEASUREMENT NOTES: Pharmacokinetic analyses, oral once daily for 10 days
# CONDITION LABEL: male, C57BL/6J, mouse, plasma, oral, 5 mg/kg, DF-003 Conc. in plasma, 5 mg/kg; 6 hours after 10th dosing; individual animals
QUANTITY: concentration at 6 h

Per the records, this molecule ( C#C[C@@](C)(c1ccc(Cl)cc1)c1csc(NC(=O)c2c(F)cc(N3CCNCC3)cc2F)n1 (stereo in doubt) [DF-003] ) has concentration at 6 h equal to 174 ng/mL

====

# MEASUREMENT NOTES: Pharmacokinetic analyses, oral once daily for 10 days
# CONDITION LABEL: male, C57BL/6J, mouse, plasma, oral, 3 mg/kg, DF-003 Conc. in plasma, 3 mg/kg; 1 hour after 10th dosing; individual animals
QUANTITY: concentration at 1 h (ng/mL)
# number only, unit ng/mL dropped from output

Per the records, this compound ( C#C[C@@](C)(c1ccc(Cl)cc1)c1csc(NC(=O)c2c(F)cc(N3CCNCC3)cc2F)n1 (stereo in doubt) [DF-003] ) has concentration at 1 h equal to 110

====

# MEASUREMENT NOTES: Pharmacokinetic analyses, oral once daily for 10 days
# CONDITION LABEL: male, C57BL/6J, mouse, plasma, oral, 3 mg/kg, DF-003 Conc. in plasma, 3 mg/kg; 8 hours after 10th dosing; individual animals
QUANTITY: concentration at 8 h (ng/mL)
# number only, unit ng/mL dropped from output

Per the records, this compound ( C#C[C@@](C)(c1ccc(Cl)cc1)c1csc(NC(=O)c2c(F)cc(N3CCNCC3)cc2F)n1 (stereo in doubt) ) has concentration at 8 h equal to 99.9

====

# MEASUREMENT NOTES: Pharmacokinetic analyses, oral once daily for 10 days
# CONDITION LABEL: male, C57BL/6J, mouse, plasma, oral, 3 mg/kg, DF-003 Conc. in plasma, 3 mg/kg; 0 hours after 10th dosing; individual animals
QUANTITY: concentration at 0 h (ng/mL)
# number only, unit ng/mL dropped from output

Per the records, this compound ( C#C[C@@](C)(c1ccc(Cl)cc1)c1csc(NC(=O)c2c(F)cc(N3CCNCC3)cc2F)n1 (stereo in doubt) ) has concentration at 0 h equal to 46.4

====

# SYSTEM NAME: ALPK1 (Homo sapiens)
# MEASUREMENT NOTES: Western blotting-based in vitro kinase assay
# Type: biochemical
# CONDITION LABEL: 20 µM
# Description: Compounds were tested at a single final concentration of 20 μM in an in vitro kinase assay including 30 nM recombinant ALPK1 (purified from 293-F cells stimulated with 4% s.t. lysate 4 h before cell lysis) and 1.6 μM His-tagged TIFA in a 20 µl volume. […] Phosphorylated TIFA were detected by incubating the membrane with an anti-phospho-threonine (#9386, Cell Signaling Technology, Danvers, MA, USA) antibody. […] Phosphorylated TIFA was detected using an anti-phospho-theronine antibody. […]
QUANTITY: effect on ALPK1-mediated TIFA phosphorylation

| COMPOUND | VALUE OBSERVED |
| --- | --- |
| Nc1c(-c2ccncc2)sc2nc(-c3cccs3)ccc12 [WXHTS0017849] | inhibitors |
| Cc1ccc(C(=O)c2cc(O)c(O)c([N+](=O)[O-])c2)cc1 [Tolcapone] | inhibit ALPK1 activity |
| Nc1nc(C2(c3ccccc3)CCCC2)cs1 [WXHTS0037341] | inhibitors |
| CC1=NN(c2ccc(C)c(C)c2)C(=O)/C1=N\Nc1cccc(-c2cccc(C(=O)O)c2)c1O [Eltrombopag] | inhibit ALPK1 activity |

====

# MEASUREMENT NOTES: Pharmacokinetic analyses, oral once daily for 10 days
# CONDITION LABEL: male, C57BL/6J, mouse, plasma, po, 5 mg/kg
QUANTITY: Cmax (ng/mL)
# number only, unit ng/mL dropped from output

Per the records, this molecule ( C#C[C@@](C)(c1ccc(Cl)cc1)c1csc(NC(=O)c2c(F)cc(N3CCNCC3)cc2F)n1 (stereo in doubt) ) has Cmax equal to 310

====

# MEASUREMENT NOTES: Pharmacokinetic analyses, oral once daily for 10 days
# CONDITION LABEL: male, C57BL/6J, mouse, plasma, po, 3 mg/kg
QUANTITY: CL/F
Quick note: number first, unit second.

Per the records, this molecule ( C#C[C@@](C)(c1ccc(Cl)cc1)c1csc(NC(=O)c2c(F)cc(N3CCNCC3)cc2F)n1 (stereo in doubt) ) has CL/F equal to 27.6 mL/min/kg

====

Here the recorded TSA Tm Increase is given for each entry.
# SYSTEM NAME: full-length ALPK1 (Homo sapiens)
# Construct: recombinant full-length ALPK1 kinase purified from Sf9 cells; 3xFlag (C); made in house; host or cells: Sf9 insect cells (baculovirus, pFAST-BAC)
# MEASUREMENT NOTES: Thermal shift assay (TSA)
# Assay type: binding
# CONDITION LABEL: compound at 10 μM
# number only, unit °C dropped from output

Known results for compounds:
| COMPOUND | TSA Tm Increase (°C) |
| --- | --- |
| O=C(O)c1cccnc1Nc1cccc(C(F)(F)F)c1 [Niflumic acid] | 1.8 |
| CO[C@@H]1[C@@H](OC(N)=O)[C@@H](O)[C@H](Oc2ccc3c(O)c(NC(=O)c4ccc(O)c(CC=C(C)C)c4)c(=O)oc3c2C)OC1(C)C [Novobiocin] | 1.4 |
| Cc1ccc(C(=O)c2cc(O)c(O)c([N+](=O)[O-])c2)cc1 [Tolcapone] | 2.2 |
| Brc1c(Br)c(Br)c2n[nH]nc2c1Br [Tbb] | 3.4 |
| O=C(O)c1cc(/N=N/c2ccc(S(=O)(=O)Nc3ccccn3)cc2)ccc1O [Sulfasalazine] | 2.0 |

Per the records, this compound ( O=C1NC(=O)/C(=C/c2ccc(-c3ccc(F)cc3O)o2)S1 [AS-252424] ) has TSA Tm Increase equal to 3.4

Per the records, this compound ( CC1=NN(c2ccc(C)c(C)c2)C(=O)/C1=N\Nc1cccc(-c2cccc(C(=O)O)c2)c1O [Eltrombopag] ) has TSA Tm Increase equal to 3.6
